# Read-out: Interleukin-1 alpha (IL1a), IL1A (gene 3552)
# experimental details: BSK_KF3CT_IL1a: BioMAP Diversity Plus: KF3CT Assay for Interleukin-1 alpha (IL1a) Biomarker Activity (AID 2283070)
# condition notes: primary human keratinocytes with fibroblasts; actives raise or lower the signal
The source made the active and inactive calls. How the source made its calls: active means hit-call score of the fitted dose curve at least 0.9, where 1 is the maximum; inactive means score below 0.9.
measured metric: AC50

Below, 6 compounds whose answers are already recorded.
INSERT INTO measurements (compound, value_observed) VALUES
  ('C=CC(=O)OCC(CO)(COC(=O)C=C)COC(=O)C=C', '0.517 µM (active)'),
  ('CCC(=O)OCC=Cc1ccccc1', 'inactive'),
  ('NC(=O)c1c(Cl)cccc1Cl', 'inactive'),
  ('OCC(F)(OC(F)(F)C(F)(OC(F)(F)C(F)(F)C(F)(F)F)C(F)(F)F)C(F)(F)F (centres undefined)', 'inactive'),
  ('CC=CC(=O)C1=C(C)C=CCC1(C)C', 'inactive'),
  ('Nc1ccc(N)c([N+](=O)[O-])c1', 'inactive');

GET /values?readout=AC50&item= `O=S(=O)(O)C(F)(F)C(F)(F)OC(F)(F)C(F)(F)F`
inactive

Any idea what AC50 was measured for `c1ccc2c(c1)-c1ccc3ccc4cccc5cc-2c1c3c45` ?
inactive

AC50 for `O=S1(=O)CC(Cl)(Cl)C(Cl)(Cl)C1` ?
1.52 µM (active)

Give the measured AC50 of `COc1ccccc1NC(=O)CC(C)=O` .
inactive

Recorded AC50 of `C=C(C)C(N)=O` , please.
inactive

Which measured AC50 value corresponds to `CC(C)(CO)CO` ?
inactive

Could you share which AC50 value was measured for `CCCCCCCCCC(=O)OCC` ?
inactive

What value of measured AC50 is listed for `c1ccc(Sc2ccccc2)cc1` ?
30.8 µM (active)
